Target: T1, Human CD3eg linker (human)
T1 construct: Single chain: epsilon and gamma subunits of human CD3 joined by a 29-mer linker, Flag-tag at the C-terminus; also called recombinant human CD3
T1 chain: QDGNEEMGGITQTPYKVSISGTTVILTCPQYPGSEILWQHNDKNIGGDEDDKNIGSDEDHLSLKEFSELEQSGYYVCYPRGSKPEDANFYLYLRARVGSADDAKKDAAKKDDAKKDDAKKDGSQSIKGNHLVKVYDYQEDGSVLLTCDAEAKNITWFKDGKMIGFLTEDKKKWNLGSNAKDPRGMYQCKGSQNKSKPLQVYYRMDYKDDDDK
Test: Biacore SPR, vs template H183/L072
// values below are reported fold change of affinity
Report the value in fold with no unit label.

1. H183/L072 VH Y97A (antibody, name in Kabat numbering, V domains shown) VH: QVQLVESGGGLVQPGRSLRLSCAASGFTFSNAWMHWVRQAPGKGLEWVAQIKDKGNAYAAYYAPSVKGRFTISRDDSKNSIYLQMNSLKTEDTAVYYCHYVHAASASTVLPAFGVDAWGQGTTVTVSS VL: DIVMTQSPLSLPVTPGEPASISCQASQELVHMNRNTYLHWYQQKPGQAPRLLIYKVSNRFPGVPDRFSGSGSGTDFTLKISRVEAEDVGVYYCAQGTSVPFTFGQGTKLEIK :: 0
2. H183/L072 VH Y55D (antibody, name in Kabat numbering, V domains shown) VH: QVQLVESGGGLVQPGRSLRLSCAASGFTFSNAWMHWVRQAPGKGLEWVAQIKDKGNADAAYYAPSVKGRFTISRDDSKNSIYLQMNSLKTEDTAVYYCHYVHYASASTVLPAFGVDAWGQGTTVTVSS VL: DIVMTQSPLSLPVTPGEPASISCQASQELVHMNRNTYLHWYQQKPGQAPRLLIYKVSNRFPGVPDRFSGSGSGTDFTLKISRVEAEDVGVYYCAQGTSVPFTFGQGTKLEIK :: 0.4

Note: attention shifts to another entry.
## Task What does the data say about its fold change of affinity? Entry: H183/L072 VH S30F (antibody, name in Kabat numbering, V domains shown) VH: QVQLVESGGGLVQPGRSLRLSCAASGFTFFNAWMHWVRQAPGKGLEWVAQIKDKGNAYAAYYAPSVKGRFTISRDDSKNSIYLQMNSLKTEDTAVYYCHYVHYASASTVLPAFGVDAWGQGTTVTVSS VL: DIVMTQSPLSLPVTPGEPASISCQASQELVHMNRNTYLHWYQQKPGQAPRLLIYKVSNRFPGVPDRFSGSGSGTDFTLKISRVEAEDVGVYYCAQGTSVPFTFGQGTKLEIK
## Result 1

These entries and their values trace back to patent US20210388087A1.
